Reference source for all entries: PubChem BioAssay (NCI)

- Test system: HL-60(TB) leukemia
- test: NCI tumour cell line growth inhibition, 48 h; in the data active means GI50 below about 0.43 µM; inactive means the rest
Hi! Could you answer with just one of these? yes for active, no for inactive

| molecule | qualitative.label |
| --- | --- |
| CC(=O)O[C@H](C[C@H](C(C)C)N(C)C(=O)[C@@H](NC(=O)[C@H]1CCCCN1C)C(C)(C)C)c1nc(C(=O)N[C@@H](Cc2ccccc2)C[C@H](C)C(=O)O)cs1 | yes |

Alright, here's another molecule for you.
Hi team, can someone confirm the assay call for O=C(c1ccccc1)c1ccccc1C(=O)c1ccccc1 ?
no

====

Quick reference: GI50 of the listed items.
- Tested on: SK-OV-3 ovarian
- test: NCI tumour cell line growth inhibition, 48 h

| compound | recorded.metric | obs.value |
| --- | --- | --- |
| O[C@H](CN1CC1)[C@@H](O)CN1CC1 | GI50 | 4910 nM |

For the compound COc1ccc(S(=O)(=O)n2c3ccccc3n3ncc(-c4nnc(C)o4)c23)cc1 , give its measured GI50 value.
598 nM

For the compound Cc1ccc(S(=O)(=O)c2ccsc2N)cc1 , give its measured GI50 value.
> 100000 nM

For the compound Cc1ccc(/C=C2\CN(Cc3cn(CCNc4ccnc5cc(Cl)ccc45)nn3)C/C(=C\c3ccc(C)cc3)C2=O)cc1 , give its measured GI50 value.
1900 nM

For the compound COc1cc(/C=C\c2cc(OC)c(OC)c(OC)c2)cc(NS(=O)(=O)c2cccc(Cl)c2)c1OC , give its measured GI50 value.
1150 nM

For the compound CC(C)=CCC/C(C)=C/[C@H]1OC(=O)CC12C[C@H](O)C=CC2=O (stereo not given in full) , give its measured GI50 value.
1440 nM

For the compound O=S1(=O)CC(Br)C(Br)C1 (stereo not given) , give its measured GI50 value.
23200 nM
